Test system: HS746T cancer cells
Experiment: Anticancer activity, cell viability by CCK-8, HS746T
Assay type: cell-based
Details: 72 hours
I'd appreciate it if you could supply Cell viability (% of Con. 10 μM) HS746T values for the items below.

Answered examples (5):
COMPOUND	Cell viability (% of Con. 10 μM) HS746T
CP(C)(=O)c1ccccc1Nc1nc(Nc2ccc3[nH]nc(-c4cccc(C#N)c4)c3c2)ncc1Cl [compound 116]	19 % of Con.
CP(C)(=O)c1ccccc1Nc1nc(Nc2ccc3[nH]nc(-c4cccc(O)c4)c3c2)ncc1Cl [compound 118]	5 % of Con.
CP(C)(=O)c1ccccc1Nc1nc(Nc2ccc3[nH]nc(-c4ccc(CO)o4)c3c2)ncc1Cl [compound 101]	13 % of Con.
CP(C)(=O)c1ccccc1Nc1nc(Nc2ccc3[nH]nc(-c4ccc(O)cc4)c3c2)ncc1Cl [compound 108]	8 % of Con.
CP(C)(=O)c1ccccc1Nc1nc(Nc2cnc3ccccc3c2)ncc1Cl [compound 19]	25 % of Con.

Hi team, please reply with Cell viability (% of Con. 10 μM) HS746T for each item in this list.
1. CP(C)(=O)c1ccccc1Nc1nc(NCc2ccccc2)ncc1Cl [compound 14]
2. CP(C)(=O)c1ccccc1Nc1nc(Nc2ccc3[nH]nc(Br)c3c2)ncc1Cl [compound 67]
3. CP(C)(=O)c1ccccc1Nc1nc(Nc2ccc3[nH]c(C(F)(F)F)nc3c2)ncc1Cl [compound 75]

110 % of Con.
25 % of Con.
21 % of Con.
